Just for reference, patent US20170355705A1 is where these values come from.

Biological target: SIRT1 (Homo sapiens)
Sequence (Q96EB6 whole entry): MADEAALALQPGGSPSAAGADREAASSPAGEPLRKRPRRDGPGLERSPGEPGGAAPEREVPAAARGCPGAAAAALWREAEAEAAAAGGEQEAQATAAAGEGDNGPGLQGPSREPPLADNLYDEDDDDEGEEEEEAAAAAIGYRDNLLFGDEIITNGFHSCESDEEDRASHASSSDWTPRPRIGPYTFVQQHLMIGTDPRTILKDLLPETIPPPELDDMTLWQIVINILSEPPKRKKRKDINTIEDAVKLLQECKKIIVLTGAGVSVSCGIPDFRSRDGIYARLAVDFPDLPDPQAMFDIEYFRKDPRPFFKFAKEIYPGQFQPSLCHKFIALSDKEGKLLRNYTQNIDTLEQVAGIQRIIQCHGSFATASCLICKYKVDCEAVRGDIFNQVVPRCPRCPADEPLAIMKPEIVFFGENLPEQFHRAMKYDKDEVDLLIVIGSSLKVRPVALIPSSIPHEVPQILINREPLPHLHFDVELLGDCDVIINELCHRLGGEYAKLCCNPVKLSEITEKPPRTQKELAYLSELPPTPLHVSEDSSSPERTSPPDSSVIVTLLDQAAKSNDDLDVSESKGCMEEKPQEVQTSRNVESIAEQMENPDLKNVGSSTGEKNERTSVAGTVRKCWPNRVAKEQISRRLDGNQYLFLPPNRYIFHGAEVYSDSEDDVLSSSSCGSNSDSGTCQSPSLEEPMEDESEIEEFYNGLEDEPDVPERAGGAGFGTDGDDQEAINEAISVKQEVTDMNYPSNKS
Assay: Trp mass spectrometry assay of SIRT1 activity (EC1.5, percent maximum activation)
Assay type: biochemical
Details: Trp mass spectrometry assay; EC1.5 = concentration giving 150% activation of SIRT1
Assay readout: TRP Activity (EC1.5)

{"Compound": "O=C(Nc1ccc(OC[C@H](O)CO)nc1)N1c2nc(-c3cccc(C(F)(F)F)c3)c(Cl)cc2N2CC[C@H]1C2 [Example 77]", "Target desc": "SIRT1 (Homo sapiens)", "Assay readout": "TRP Activity (EC1.5)", "Value observed": "A (EC1.5<1 μM)"}
{"Compound": "Cc1cc(-c2ccc3c(n2)N(C(=O)Nc2ccc4c(c2)OCO4)[C@H]2CCN3C2)ccn1 [Example 195]", "Target desc": "SIRT1 (Homo sapiens)", "Assay readout": "TRP Activity (EC1.5)", "Value observed": "A (EC1.5<1 μM)"}
{"Compound": "O=C(Nc1cncc(OCCO)n1)N1c2nc(-c3cccc(C(F)(F)F)c3)c(Cl)cc2N2CC[C@H]1C2 [Example 69]", "Target desc": "SIRT1 (Homo sapiens)", "Assay readout": "TRP Activity (EC1.5)", "Value observed": "A (EC1.5<1 μM)"}
